Each record here notes measured pIC50.
system: LO2 cells; test: MTT cytotoxicity assay, normal cell line LO2; format: cell-based, human; conditions: L02; human normal cell line LO2, MTT, average of three determinations
pIC50: −log10 of the molar value.

> print(dat)
                                   compound  recordedendpoint  datavalue
1  CC(C)/C=C/C(=O)Nc1cccc(Oc2cc(-c3cccs3)nc(Nc3cccc(C#N)c3)n2)c1 [Compound H6]             pIC50     < 4.00
2  C=C(F)C(=O)Nc1cccc(Oc2cc(-c3cccs3)nc(Nc3cccc(C#N)c3)n2)c1 [Compound H5]             pIC50     < 4.00
3  C/C=C/C(=O)Nc1cccc(Oc2cc(-c3cccs3)nc(Nc3cccc(C#N)c3)n2)c1 [Compound H2]             pIC50       4.06
4  CCN(CC)Cc1ccc(-c2nc(Oc3cccc(NC(=O)C=C(C)C)c3)nc(N3CCOCC3)n2)s1 [Compound H15]             pIC50     < 4.00

QUERY: For CCC/C=C/C(=O)Nc1cccc(Oc2cc(-c3cccs3)nc(Nc3cccc(C#N)c3)n2)c1 [Compound H4] , what is its reported pIC50?
RESULT: < 4.00

====

recordedEndpoint: melting point

Recorded results for 4 molecules are shown here.
> print(dat)
                                   molecule          datavalue
1  CCC/C=C/C(=O)Nc1cccc(Oc2cc(-c3cccs3)nc(Nc3cccc(C#N)c3)n2)c1 [Compound H4]  209.6 to 211.4 °C
2  C/C=C/C(=O)Nc1cccc(Oc2nc(-c3ccc(CN(C)C)s3)nc(N3CCOCC3)n2)c1 [Compound H10]  202.4 to 203.7 °C
3  CC(C)=CC(=O)Nc1cccc(Oc2cc(-c3cccs3)nc(Nc3cccc(C#N)c3)n2)c1 [Compound H3]  215.5 to 218.7 °C
4  C=C(F)C(=O)Nc1cccc(Oc2cc(-c3cccs3)nc(Nc3cccc(C#N)c3)n2)c1 [Compound H5]  222.9 to 226.8 °C

QUERY: For C/C=C/C(=O)Nc1cccc(Oc2cc(-c3cccs3)nc(Nc3cccc(C#N)c3)n2)c1 [Compound H2] , what is its reported melting point?
RESULT: 201.2 to 205.9 °C

QUERY: For COc1cccc(Nc2nc(Oc3cccc(NC(=O)/C=C/C(C)C)c3)cc(-c3cccs3)n2)c1 [Compound H8] , what is its reported melting point?
RESULT: 217.9 to 219.1 °C

QUERY: For C/C=C/C(=O)Nc1cccc(Oc2cc(-c3cccs3)nc(Nc3cccc(OC)c3)n2)c1 [Compound H7] , what is its reported melting point?
RESULT: 231.7 to 234.3 °C

QUERY: For CC(C)/C=C/C(=O)Nc1cccc(Oc2nc(-c3ccc(CN(C)C)s3)nc(N3CCOCC3)n2)c1 [Compound H12] , what is its reported melting point?
RESULT: 199.7 to 201.3 °C

QUERY: For CCN(CC)Cc1ccc(-c2nc(Oc3cccc(NC(=O)C=C(C)C)c3)nc(N3CCOCC3)n2)s1 [Compound H15] , what is its reported melting point?
RESULT: 215.2 to 217.1 °C

QUERY: For CC(C)/C=C/C(=O)Nc1cccc(Oc2cc(-c3cccs3)nc(Nc3cccc(C#N)c3)n2)c1 [Compound H6] , what is its reported melting point?
RESULT: 223.1 to 225.4 °C

====

Measured IC50 (UniProtKB P42336)
Sequence (P42336 whole entry): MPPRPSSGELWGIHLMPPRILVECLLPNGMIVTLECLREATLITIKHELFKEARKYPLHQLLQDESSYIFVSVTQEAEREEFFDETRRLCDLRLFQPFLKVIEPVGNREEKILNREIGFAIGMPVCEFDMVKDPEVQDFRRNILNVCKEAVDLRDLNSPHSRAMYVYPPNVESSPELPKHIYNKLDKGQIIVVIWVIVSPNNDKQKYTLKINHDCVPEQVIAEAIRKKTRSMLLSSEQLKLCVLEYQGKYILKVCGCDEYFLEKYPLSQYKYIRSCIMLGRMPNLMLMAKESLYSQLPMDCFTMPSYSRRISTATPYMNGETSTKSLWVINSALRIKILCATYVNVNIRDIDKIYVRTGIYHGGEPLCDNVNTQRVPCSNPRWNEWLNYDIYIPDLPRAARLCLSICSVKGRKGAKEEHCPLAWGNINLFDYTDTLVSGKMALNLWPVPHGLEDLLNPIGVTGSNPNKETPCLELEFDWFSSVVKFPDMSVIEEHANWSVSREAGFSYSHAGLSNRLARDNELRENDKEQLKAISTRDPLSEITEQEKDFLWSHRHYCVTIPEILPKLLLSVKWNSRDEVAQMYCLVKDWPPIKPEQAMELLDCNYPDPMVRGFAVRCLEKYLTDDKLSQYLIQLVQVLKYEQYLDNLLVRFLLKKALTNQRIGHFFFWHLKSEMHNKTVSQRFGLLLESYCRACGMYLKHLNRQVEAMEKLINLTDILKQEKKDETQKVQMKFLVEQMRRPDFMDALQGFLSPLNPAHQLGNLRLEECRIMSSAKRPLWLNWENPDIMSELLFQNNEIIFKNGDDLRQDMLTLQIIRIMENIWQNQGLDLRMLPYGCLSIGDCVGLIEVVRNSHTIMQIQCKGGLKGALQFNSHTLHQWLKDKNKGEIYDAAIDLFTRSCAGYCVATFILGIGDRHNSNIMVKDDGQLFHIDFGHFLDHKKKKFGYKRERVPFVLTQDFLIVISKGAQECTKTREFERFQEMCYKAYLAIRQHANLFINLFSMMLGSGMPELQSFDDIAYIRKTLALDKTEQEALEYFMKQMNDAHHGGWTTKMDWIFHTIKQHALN
Sequence (P27986 whole entry partner): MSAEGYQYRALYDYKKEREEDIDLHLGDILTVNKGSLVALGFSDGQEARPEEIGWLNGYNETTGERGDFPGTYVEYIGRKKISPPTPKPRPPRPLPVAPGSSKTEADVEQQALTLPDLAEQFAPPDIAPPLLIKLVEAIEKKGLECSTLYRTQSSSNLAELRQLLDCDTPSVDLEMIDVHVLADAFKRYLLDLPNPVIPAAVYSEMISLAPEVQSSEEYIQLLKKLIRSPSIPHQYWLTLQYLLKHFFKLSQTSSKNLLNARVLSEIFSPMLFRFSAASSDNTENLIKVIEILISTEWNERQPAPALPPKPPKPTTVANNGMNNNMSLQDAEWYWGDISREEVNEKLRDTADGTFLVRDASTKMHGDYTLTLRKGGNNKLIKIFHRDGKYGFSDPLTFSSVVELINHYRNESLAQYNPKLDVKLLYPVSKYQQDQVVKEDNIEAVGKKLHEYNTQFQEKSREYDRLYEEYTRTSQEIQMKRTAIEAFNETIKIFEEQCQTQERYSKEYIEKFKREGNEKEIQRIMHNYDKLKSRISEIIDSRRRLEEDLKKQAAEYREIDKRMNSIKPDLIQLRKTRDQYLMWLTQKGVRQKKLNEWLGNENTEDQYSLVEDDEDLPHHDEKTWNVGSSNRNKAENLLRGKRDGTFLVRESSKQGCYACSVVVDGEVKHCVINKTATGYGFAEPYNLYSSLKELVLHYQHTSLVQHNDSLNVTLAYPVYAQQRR

> print(dat)
                                   compound  datavalue
1  C=CC(=O)Nc1cccc(Oc2nc(Nc3ccc(N4CCN(C)CC4)cc3)nc3ccsc23)c1 [Olmutinib, olmutinib, reference compound]    > 10 µM

QUERY: Form: Entry = C/C=C/C(=O)Nc1cccc(Oc2cc(-c3cccs3)nc(Nc3cccc(OC)c3)n2)c1 | System = UniProtKB P42336 | IC50 = ____
RESULT: > 10 µM

====

Each record here notes measured Selectivity IC50(LO2)/IC50(A549).
system: LO2 cells; experiment: MTT cytotoxicity assay, normal cell line LO2; format: cell-based, human; conditions: ratio IC50(LO2)/IC50(A549)

> print(dat)
                                        smi  datavalue
1  C=CC(=O)Nc1cccc(Oc2cc(-c3cccs3)nc(Nc3cccc(C#N)c3)n2)c1     >22.57
2  CCN(CC)Cc1ccc(-c2nc(Oc3cccc(NC(=O)C=C(C)C)c3)nc(N3CCOCC3)n2)s1      >4.68
3  C/C=C/C(=O)Nc1cccc(Oc2cc(-c3cccs3)nc(Nc3cccc(C#N)c3)n2)c1       8.38
4  CCN(CC)Cc1ccc(-c2nc(Oc3cccc(NC(=O)/C=C/C(C)C)c3)nc(N3CCOCC3)n2)s1      >2.77

QUERY: For C/C=C/C(=O)Nc1cccc(Oc2nc(-c3ccc(CN(C)C)s3)nc(N3CCOCC3)n2)c1 , what is its reported Selectivity IC50(LO2)/IC50(A549)?
RESULT: >29.76

QUERY: For CC(C)=CC(=O)Nc1cccc(Oc2cc(-c3cccs3)nc(Nc3cccc(C#N)c3)n2)c1 , what is its reported Selectivity IC50(LO2)/IC50(A549)?
RESULT: >3.61

====

system: LO2 cells; test: MTT cytotoxicity assay, normal cell line LO2; type: cell-based, human; settings: ratio IC50(LO2)/IC50(A549)
Each record here notes measured Selectivity IC50(LO2)/IC50(A549).

Recorded results for 5 compounds are shown here.
> print(dat)
                                        smi  studysystem  datavalue
1  C/C=C/C(=O)Nc1cccc(Oc2cc(-c3cccs3)nc(Nc3cccc(OC)c3)n2)c1    LO2 cells     >22.88
2  COc1cccc(Nc2nc(Oc3cccc(NC(=O)/C=C/C(C)C)c3)cc(-c3cccs3)n2)c1    LO2 cells      >5.26
3  CCC/C=C/C(=O)Nc1cccc(Oc2cc(-c3cccs3)nc(Nc3cccc(C#N)c3)n2)c1    LO2 cells      >2.70
4  CC(C)=CC(=O)Nc1cccc(Oc2nc(-c3ccc(CN(C)C)s3)nc(N3CCOCC3)n2)c1    LO2 cells      >7.39
5  CC(C)/C=C/C(=O)Nc1cccc(Oc2nc(-c3ccc(CN(C)C)s3)nc(N3CCOCC3)n2)c1    LO2 cells      >4.57

With those in mind, consider the next compound.
QUERY: Form: Entry = CC(C)/C=C/C(=O)Nc1cccc(Oc2cc(-c3cccs3)nc(Nc3cccc(C#N)c3)n2)c1 | System = LO2 cells | Selectivity IC50(LO2)/IC50(A549) = ____
RESULT: >6.43
